molecular target: T1, human IL-13 R130Q variant (R110Q of the mature chain) (human, UniProt P35225 35-146, Biotinylated on amines (NHS-LC-biotin, 4:1) in ELISA, panning and competition assays. The letters are unchanged.); assay: single-point (10 nM) phage Fab ELISA on biotinylated IL-13 R130Q
T1 construct: R130Q counts from Met 1 of the signal peptide, R110Q on the mature chain; Bought from Peprotech; also called IL-13 R110Q; b-R130Q
T1 sequence (P35225 35-146 limits assumed, stated change not applied): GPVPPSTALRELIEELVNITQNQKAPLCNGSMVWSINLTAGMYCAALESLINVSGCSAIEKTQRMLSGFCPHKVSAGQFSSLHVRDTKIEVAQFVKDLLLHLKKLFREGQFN
reported endpoint: % of Lc16Hc7
Provide a numeric answer, followed by its unit.

// Input: Phage # 11 Fab (IL-13-142 library) (Fab, V domains shown, Fab on phage pIX) VH: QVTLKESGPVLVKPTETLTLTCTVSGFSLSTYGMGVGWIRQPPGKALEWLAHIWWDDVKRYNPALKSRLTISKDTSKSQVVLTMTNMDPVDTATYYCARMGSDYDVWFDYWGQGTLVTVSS VL: DIQMTQSPSTLSASVGDRVTITCRASKSISKYLAWYQQKPGKAPKLLIYSGSTLQSGVPSRFSGSGSGTEFTLTISSLQPDDFATYYCQQQDVGPYTFGGGTKVEIK . Output its % of Lc16Hc7 only.
229%

// Input: Phage # 16 Fab (IL-13-142 library) (Fab, V domains shown, Fab on phage pIX) VH: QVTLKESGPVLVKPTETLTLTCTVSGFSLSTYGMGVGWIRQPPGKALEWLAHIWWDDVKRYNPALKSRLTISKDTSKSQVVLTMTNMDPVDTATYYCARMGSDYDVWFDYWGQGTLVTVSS VL: DIQMTQSPSTLSASVGDRVTITCRASKSISKYLAWYQQKPGKAPKLLIYSGSTLQSGVPSRFSGSGSGTEFTLTISSLQPDDFATYYCQQHVGGPYTFGGGTKVEIK . Output its % of Lc16Hc7 only.
206%

// Input: Phage # 86 Fab (IL-13-142 library) (Fab, V domains shown, Fab on phage pIX) VH: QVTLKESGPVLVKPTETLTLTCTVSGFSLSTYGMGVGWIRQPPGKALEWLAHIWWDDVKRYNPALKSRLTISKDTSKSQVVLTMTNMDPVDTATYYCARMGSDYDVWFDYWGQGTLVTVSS VL: DIQMTQSPSTLSASVGDRVTITCRASKSISKYLAWYQQKPGKAPKLLIYSGSTLQSGVPSRFSGSGSGTEFTLTISSLQPDDFATYYCQQHDTGPYTFGGGTKVEIK . Output its % of Lc16Hc7 only.
334%
